Test system: C38 cells in the presence of 650 ng/mL of ExoA
Experiment notes: Determination of half-maximal effective concentration (EC50) in C38 cells
Assay type: cell-based, Human
Condition details: Homo sapiens, 96 h
Would you mind telling me the reported EC50 of each entry?
Please respond with the number in µM and leave the unit unwritten.

Log: C38 cells in the presence of 650 ng/mL of ExoA, compound CC1=C(C)C2C(=O)CC(SCC(=O)NCCO)=CC2S1 (centres unmarked) , EC50 = 8.8

Log: C38 cells in the presence of 650 ng/mL of ExoA, compound O=C1NC(=O)c2cccc3cccc1c23 [NAP, 1,8-naphthalimide, reference compound] , EC50 = 3.8

###

System name: WT ExoAc (Pseudomonas aeruginosa)
Sequence (P11439 430-638 limits assumed): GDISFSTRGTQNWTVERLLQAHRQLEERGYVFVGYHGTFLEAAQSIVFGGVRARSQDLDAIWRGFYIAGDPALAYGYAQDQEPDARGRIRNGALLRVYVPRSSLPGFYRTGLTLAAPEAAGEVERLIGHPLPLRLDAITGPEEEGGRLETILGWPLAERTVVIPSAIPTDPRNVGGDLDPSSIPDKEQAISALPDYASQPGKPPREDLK
Experiment notes: biochemical
Format: binding, P. aeruginosa
Condition details: read-out: Kd
Doc: threshold 200 nM (exclusive). Items with Kd beneath it return 1.0; others return 0.0.

Query: Report whether reported Kd is lower than 200 nM (strictly) for CN(C)Cc1nc2cccc3c2n1CCNC3=O
Reply: 0.0

Query: Report whether reported Kd is lower than 200 nM (strictly) for O=C1NN=C(CN2CCOCC2)c2c[nH]c3cccc1c23 [Compound P1]
Reply: 1.0

Query: Report whether reported Kd is lower than 200 nM (strictly) for O=C1NCC2c3cc(S(=O)(=O)O)ccc3Oc3cccc1c32 (centres unmarked)
Reply: 1.0

Query: Report whether reported Kd is lower than 200 nM (strictly) for CN1CCN(C2CCC3NC(O)C4CCCCC4C3N2)CC1 (centres unmarked)
Reply: 0.0

Query: Report whether reported Kd is lower than 200 nM (strictly) for O=C1NCCn2c(CCc3ccc(CN4CCCC4)cc3)nc3cccc1c32
Reply: 0.0
